Target Or Test System: SARS-CoV-2 S2 protein (SARS-CoV-2 (WT), UniProt P0DTC2 686-1213)
Assay Comment: streptavidin bead fluorescence binding
Condition Context: protein: commercial; tags: His
Readout Label: Kd (nM)
Quick note: give the figure in nM, leave out the unit.

Need Kd, item S2A1 (ssDNA) DNA: CAAGGAGCGACCAGAGGGGCGGTTTATCAACAACTCGCTCTGTACACCACTCTTTGTTGGCATCCTTCAGCCC
49.7

Ref: paper PMC9330529
